Assay: logP (physical data of the preparation examples)
Format: physicochemical
Entries whose logP is below 3 take rule met; entries at or above 3 take rule not met.

{"MOLECULE": "COc1ccc(CCNC(=O)C(O)c2ccc3c(c2)CCC3)cc1OC (stereo not drawn)", "ANSWER LABEL": "rule met"}
{"MOLECULE": "COc1ccc(CCNC(=O)C(O)c2ccc3c(c2)CCCC3)cc1OC (stereo not drawn)", "ANSWER LABEL": "rule met"}
{"MOLECULE": "COc1ccc(CCNC(=O)C(=O)c2ccc3c(c2)CCCC3)cc1OC", "ANSWER LABEL": "rule not met"}

Please state whether logP is below 3 for COc1ccc(CCNC(=O)C(O)c2ccc3c(c2)CCCCC3)cc1OC (stereo not drawn)
rule met

Please state whether logP is below 3 for `COc1ccc(CCNC(=O)C(=O)c2ccc3c(c2)CCCCC3)cc1OC`
rule not met
